These measurements were taken from PubChem BioAssay (NCI).

- Tested on: M14 melanoma
- EXPERIMENTAL_DETAILS: NCI-60 one-dose screen, 48 h (100 = growth as untreated, 0 = no growth, -100 = all killed)
- EXPERIMENTAL_PARAMETERS: 10 µM unless noted
About 83,000 compounds went through this panel and 20% of them were active in at least one assay; those are over-represented in the sample as a whole.
Reported values of growth for individual entries
RECORDED_ENDPOINT: growth (%)

# COMPOUND, RECORDED_ENDPOINT, MEASURE_UNIT, NUMERIC_VALUE
data = [
    ("N=c1c2c(=N)n3c(nc2nc2n1-c1ccccc1Sc1ccccc1-2)sc1cc(Cl)ccc13", "growth", "%", 28.8),
    ("O=C(NCc1ccc2c(c1)OCO2)NCC1CCCC(CNC(=O)NCc2ccc3c(c2)OCO3)C1 (stereo not drawn)", "growth", "%", 109),
    ("COc1ccc(/C=C/C(=O)c2cc3c(N)c(C(=O)Nc4ccc(OC)cc4)sc3nc2C)cc1", "growth", "%", 10.2),
    ("CC(C)C[C@@H](C(=O)N[C@H](C(=O)OC1CCCC1)c1ccccc1)[C@H](O)C(=O)NO", "growth", "%", 54.5),
    ("COc1cc2c3c(n(CCCCNCCCn4c5c(c6cc(OC)c(OC)cc6c4=O)C(=O)c4cc6c(cc4-5)OCO6)c(=O)c2cc1OC)-c1cc2c(cc1C3=O)OCO2", "growth", "%", 96.3),
    ("C=CC(=O)NCCOc1cccc(Nc2cc(NCCCNC(=O)C3CCC3)c(Br)cn2)c1", "growth", "%", -18.7),
    ("Clc1nn2c(Cn3cnc4c(NCc5ccccc5)ncnc43)nnc2c2ccccc12", "growth", "%", 19.7),
    ("Oc1c(Cl)cc(Cl)c2ccc(Cn3cc(-c4cccc(C(F)(F)F)c4)nn3)nc12", "growth", "%", 62.4),
    ("CCCCCCCCCCCCCCCCCCOc1ccccc1CC(=O)NCC[N+]1(C)CCOCC1", "growth", "%", 69.6),
    ("COc1ccc(NC(=O)c2sc3nc4c(cc3c2N)CCCC4)cc1", "growth", "%", 18.3),
    ("CC(C)CSc1oc(-c2ccccc2)nc1S(=O)(=O)c1ccccc1", "growth", "%", 98.3),
    ("O=C(/C=C/c1ccc(Br)cc1)c1ccc(-n2cc(CN3CCN(c4cc5c(cc4F)c(=O)c(C(=O)O)cn5C4CC4)CC3)nn2)cc1", "growth", "%", 87),
    ("Fc1ccc(COc2ccc(Nc3ncnc4sc5c(c34)CCCC5)cc2)cc1", "growth", "%", 104),
    ("Cc1ccc(-c2cc(C(=O)N3N=C(c4ccc(N)cc4)CC3c3ccc(Cl)cc3)c3ccccc3n2)cc1 (stereo not drawn)", "growth", "%", -24),
    ("COc1cc(C(=O)C(=O)c2cc(OC)c(O)c(OC)c2)cc(OC)c1O", "growth", "%", 104),
    ("CN1CCN(Cc2cc(NC(=O)c3cccc(C#Cc4cccc5[nH]nc(N)c45)c3)cc(C(F)(F)F)c2)CC1", "growth", "%", -53.1),
    ("COC(=O)c1ccc2c(c1)c1c(C)c3ccncc3c(C)c1n2C", "growth", "%", 30.8),
    ("CN(CCC#N)c1ccc(/C=C2\\NC(=O)NC2=O)cc1", "growth", "%", 96.4),
    ("N#Cc1nc2c(S(=O)(=O)c3ccccc3)c(N)n(Cc3cccnc3)c2nc1C#N", "growth", "%", 142),
    ("CN1CCN(CCCOC(=O)c2c3c(n4ccccc24)C(=O)c2ncccc2C3=O)CC1", "growth", "%", -86.1),
    ("CCNC(=O)Oc1ccc(/C(=C(/C)Cc2ccc(OC)cc2)c2ccc(OCCN3CCCC3)cc2)cc1", "growth", "%", 2.05),
    ("CCC/C(=N\\NC(N)=O)C(OC)OC", "growth", "%", 96.9),
    ("CCN1C(=O)N(CC)C2C1NN=c1s/c(=C3\\C(=O)N(CCc4ccccc4)c4ccccc43)c(=O)n12 (stereo not drawn)", "growth", "%", 13.6),
    ("CN1CCN(CCOc2ccc(-c3cnc4c(-c5ccc(C(F)(F)F)cc5)cnn4c3)cc2)CC1", "growth", "%", -64.2),
    ("N=C(N)SCc1cccc2c(CSC(=N)N)cccc12", "growth", "%", 105),
    ("COc1ccc(C2=C/C(=C\\c3ccc(Cl)cc3)C(=O)N2/N=C/c2ccc(Cl)cc2)cc1", "growth", "%", 100),
    ("Fc1ccc(CNc2c3ccccc3nc3ccccc23)cc1", "growth", "%", 34.4),
    ("CCOC(=O)c1c(C)nn(CC(O)c2ccccc2)c1NC(=O)Nc1cccc(F)c1 (stereo not drawn)", "growth", "%", 96.2),
    ("O=C1NC(=O)c2c1c1c3ccccc3[nH]c1c1oc3cc(Br)ccc3c21", "growth", "%", 65.8),
    ("CCCCCn1sc(=O)n(Cc2ccc(CNC(=O)OCc3ccc4c(Cl)cc(Cl)c(O)c4n3)cc2)c1=O", "growth", "%", 58.8),
    ("C=C1C(=O)O[C@H]2[C@H]1CC/C(COC(=O)c1cc3cc(F)ccc3[nH]1)=C\\CC[C@@]1(C)O[C@@H]21", "growth", "%", -75.9),
    ("Cc1c(N2CN3C[C@H](C)N4CN(c5c(C)n(C)n(-c6ccccc6)c5=O)CN5C[C@@H](C)N(C2)C3C54)c(=O)n(-c2ccccc2)n1C (stereo partly drawn)", "growth", "%", 99.8),
    ("CN(Cc1cnc2nc(N)nc(N)c2n1)c1c(Cl)cc(C(=O)NC(CCC(=O)O)C(=O)O)cc1Cl (stereo not drawn)", "growth", "%", 21.3),
    ("CCN(CC)S(=O)(=O)c1ccc(S(=O)(=O)N2CCC[C@@H](C(=O)N3CCN(C(=O)OC(C)(C)C)CC3)C2)cc1", "growth", "%", 77.9),
    ("COC(=O)c1c2c(n3ccc(C)cc13)C(=O)c1ccccc1C2=O", "growth", "%", 63.5),
    ("CCC(CC)(N(CC(=O)O)CC(=O)O)C(CC)(CC)N(CC(=O)O)CC(=O)O", "growth", "%", 106),
    ("CCN(CC)CCN(CCN(CC)CC)c1ccccc1", "growth", "%", 82.3),
    ("Oc1c(CN2CCCC2)cc(COCc2ccccc2)c2cccnc12", "growth", "%", -2.08),
]
